Sourced from PubChem BioAssay (NCI)

This listing pairs compounds with measured growth inhibition.
assay: NCI Yeast Anticancer Drug Screen. Data for the mec2-1 strain (AID 157); conditions: S. cerevisiae mec2-1 strain, at 50.0 µM, hits give high values
This is part of a sample that, as a whole, favours compounds with a hit. Of some 79,000 tested, about 15% had one in any assay.
Write the number in % without appending the unit.

| compound | result_number |
| --- | --- |
| CN1CCC23CC=CCC2C1Cc1ccc([N+](=O)[O-])cc13 (centres undefined) | 11.3 |
| CN1CCOC(c2ccccc2)c2ccsc2CC1 (centres undefined) | -5 |
| COC1CC(OC2C(C)OC(OC3C(C)OC(OC4C(C)OC(O[C@H]5CC[C@@]6(C)C(=CC[C@]7(O)[C@@H]6C[C@@H](OC(C)=O)[C@@]6(C)[C@]7(O)CC[C@@]6(O)C(C)=O)C5)CC4OC)CC3OC)CC2OC)OC(C)C1O (some centres undefined) | -7.45 |

Now consider the entry below.
Enquiry: Entry "C[Si](C)(OC(=O)N(CCCl)CCCl)O[Si](C)(C)OC(=O)N(CCCl)CCCl" : reported growth inhibition = ?
Return: 1.05

* * *

assay: NCI Yeast Anticancer Drug Screen. Data for the mlh1 rad18 strain (AID 175); details: S. cerevisiae mlh1 rad18 strain growth inhibition; at 50.0 µM; hits give high values
This is part of a sample that, as a whole, favours compounds with a hit. Of some 79,000 tested, about 15% had one in any assay.
measured_parameter: growth inhibition (%)
Please state the figure in %; there is no need to write the unit.

| compound | growth inhibition, % |
| --- | --- |
| N#CC(C#N)c1ccccc1 | 1.2 |
| COc1ccc([As+](c2ccccc2)(c2ccccc2)c2ccccc2)cc1 | 99 |
| C[N+](C)(C)Cc1cccc([N+](=O)[O-])c1 | 13.2 |
| COCCCNP(=O)(OC(C)C)OC(C)C | 14.8 |
| CC(CCC/C=C/CCCN(C)C(=N)N)CC(C)C1OC(=O)C(C)C(O)/C=C/C(C)C(O)C(C)C(O)C(C)C(O)CCCC(O)CC2(O)OC(CC(OC(=O)CC(=O)O)CC(O)CC(O)C(C)C(O)/C=C/C=C/C1C)CC(O)C2O (stereo not given) | 92.8 |
| CC(=O)c1ccc(-c2ccccc2)cc1 | 18.1 |

Enquiry: Requested field: growth inhibition. Item: "C1=C(/C=C2\CCCc3c(-c4ccccc4)cc(-c4ccccc4)[o+]c32)CCC/C1=C\C1=C2OC(c3ccccc3)=CC(c3ccccc3)=C2CCC1"
Return: 31.9

Enquiry: Report growth inhibition for "Cc1cccc2c(=O)c([Se]c3coc4c(C)cccc4c3=O)coc12" please.
Return: -30.1

Enquiry: Entry under review: "O=[N+]([O-])c1ccc([As](=O)(O)c2cccc([N+](=O)[O-])c2)cc1" . Reported growth inhibition?
Return: 7.4

Enquiry: Form field: reported growth inhibition of "O=C(O)c1ccccc1.[Zn+2]"
Return: 1.9

* * *

test: NCI Yeast Anticancer Drug Screen. Data for the mec2-1 strain (AID 157); conditions: S. cerevisiae mec2-1 strain, at 50.0 µM (retest, dose inferred, filed as 5.0)
This is part of a sample that, as a whole, favours compounds with a hit. Of some 79,000 tested, about 15% had one in any assay. The source made the active and inactive calls. Cut-off read from the data, not from the text of the source: active = growth inhibition above about 70%; inactive = the rest.
Can you answer with just one of these options? T = active, F = inactive

Before answering, review these 3 worked examples.
| molecule | cat |
| --- | --- |
| CC1=CC2CC(C)=C(CC[C@]3(C)CC[C@H]([C@@H](C)C(=O)O)OO3)C(C)(C)C2CC1 (stereo not given in full) | T |
| NNc1ccccc1 | T |
| CCc1c[c]([Hg][Cl])c(CC)c(CC)c1CC | T |

Enquiry: Could you check what this test reported for "O=c1oc2cc(O)ccc2c(O)c1C(c1ccc(/C=C/c2ccccc2)cc1)c1c(O)c2ccc(O)cc2oc1=O" ?
Return: T

Enquiry: State the result this test recorded for "C[CH2][Sn]1([CH2]C)[O]S(=O)(=O)[O]1" .
Return: T

Enquiry: For "[N-]=[N+]=Nc1c([N+](=O)[O-])c(=O)n2c3c(cccc13)CCC2" , which call appears in the assay record?
Return: T

Enquiry: For "[N-]=[N+]=NS(=O)(=O)c1ccccc1S(=O)(=O)N=[N+]=[N-]" , what call appears in the results of this test?
Return: T

Enquiry: Call for entry CC1(Br)Cc2ccccc2C1=O (stereo not given) :
Return: F
